src = patent EP4692079A1

- Assay protocol: Pharmacokinetic test in rats
- Format: in vivo
- Condition parameters: rat; male SD rats, intravenous administration (2.5 mg/kg), plasma
Mark N for clearance values under 7 mL/min/kg, and Y for everything at or above.

Please review the entries below; each comes with its answer.
Q: Check if clearance >= 7 mL/min/kg (inclusive). Item: O=c1cc(CN2Cc3ccc(C(F)(F)F)cc3C2)occ1/C=C/[C@H]1CC[C@H](NC(=O)[C@H]2C[C@H](F)C2)CC1 [Compound 101]
Result: Y

Q: Tell me whether clearance is at least 7 mL/min/kg here: Cn1cc(C(=O)N[C@H]2CC[C@H](COc3coc(CN4Cc5ccc(C(F)(F)F)cc5C4)cc3=O)CC2)cn1 [Compound 35]
Result: N

Q: Is it the case that O=C(N[C@H]1CC[C@H](/C=C/c2coc(CN3Cc4ccc(C(F)(F)F)cc4C3)cc2=O)CC1)C1CC1 [Compound 61] has clearance reaching or exceeding 7 mL/min/kg?
Result: Y

Q: Threshold query (clearance >= 7 mL/min/kg) on [2H]C([2H])([2H])n1cc(C(=O)N[C@H]2CC[C@H](/C=C/c3coc(CN4Cc5ccc(C(F)(F)F)cc5C4)cc3=O)CC2)cn1 [Compound 81]
Result: N

Turning now to a further molecule:
Q: Is it the case that [2H]C([2H])([2H])n1cc(C(=O)N[C@H]2CC[C@H](CCc3coc(CN4Cc5ccc(C(F)(F)F)cc5C4)cc3=O)CC2)cn1 [Compound 118] has clearance reaching or exceeding 7 mL/min/kg?
Result: Y

###

- Assay protocol: Pharmacokinetic test in rats
- Format: in vivo
- Condition parameters: rat, po; male SD rats, intragastric administration (10 mg/kg), plasma
Kindly state half-life for each of the entries shown.

// `O=C(N[C@H]1CC[C@H](/C=C/c2coc(CN3Cc4ccc(C(F)(F)F)cc4C3)cc2=O)CC1)C1CC1` : half-life value = 3.03 h

Record `CS(=O)(=O)N1CC(OC(=O)N[C@H]2CC[C@H](COc3coc(CN4Cc5ccc(C(F)(F)F)cc5C4)cc3=O)CC2)C1` , field half-life: 2.92 h

half-life reading for `[2H]C([2H])([2H])n1cc(C(=O)N[C@H]2CC[C@H](CCc3coc(CN4Cc5ccc(C(F)(F)F)cc5C4)cc3=O)CC2)cn1` : 4.41 h

Documented half-life of `C/C(=C\[C@H]1CC[C@H](NC(=O)c2cnn(C)c2)CC1)c1coc(CN2Cc3ccc(C(F)(F)F)cc3C2)cc1=O` : 4.15 h

The reported value for `CS(=O)(=O)N1CC(OC(=O)N2CCC(COc3coc(CN4Cc5ccc(C(F)(F)F)cc5C4)cc3=O)CC2)C1` in terms of half-life is 2.72 h

Please turn your attention to the following entry.
According to the records, this compound `O=c1cc(CN2Cc3ccc(C(F)(F)F)cc3C2)occ1/C=C/[C@H]1CC[C@H](NC(=O)[C@H]2C[C@H](F)C2)CC1` displays half-life of 3.59 h

###

- Assay protocol: Pharmacokinetic test in mice
- Type: in vivo
- Condition parameters: mouse; male ICR mice, intravenous administration (2.5 mg/kg), plasma
Give AUC(0-t) for every item shown.
Numbers only, in ng·h/mL.

Use these answered entries as a reference point.
response.value for `CS(=O)(=O)N1CC(OC(=O)N2CCC(COc3coc(CN4Cc5ccc(C(F)(F)F)cc5C4)cc3=O)CC2)C1` (field: AUC(0-t)) = 4790

Measured AUC(0-t), `Cn1cc(C(=O)N[C@H]2CC[C@H](COc3coc(CN4Cc5ccc(C(F)(F)F)cc5C4)cc3=O)CC2)cn1` : 12500

Kindly note the recorded AUC(0-t) for `[2H]C([2H])([2H])n1cc(C(=O)N[C@H]2CC[C@H](/C=C/c3coc(CN4Cc5ccc(C(F)(F)F)cc5C4)cc3=O)CC2)cn1` , which is 22600

Let us move to another entry and its AUC(0-t).
The recorded AUC(0-t) for `[2H]C([2H])([2H])n1cc(C(=O)N[C@H]2CC[C@H](CCc3coc(CN4Cc5ccc(C(F)(F)F)cc5C4)cc3=O)CC2)cn1` is 7980
